MEASURED ON: hS1P4 (ProLink-tagged, PathHunter) (Homo sapiens, UniProt O95977)
Construct: ProLink-tagged receptor, PathHunter HEK293 cells
Sequence (O95977 1-384): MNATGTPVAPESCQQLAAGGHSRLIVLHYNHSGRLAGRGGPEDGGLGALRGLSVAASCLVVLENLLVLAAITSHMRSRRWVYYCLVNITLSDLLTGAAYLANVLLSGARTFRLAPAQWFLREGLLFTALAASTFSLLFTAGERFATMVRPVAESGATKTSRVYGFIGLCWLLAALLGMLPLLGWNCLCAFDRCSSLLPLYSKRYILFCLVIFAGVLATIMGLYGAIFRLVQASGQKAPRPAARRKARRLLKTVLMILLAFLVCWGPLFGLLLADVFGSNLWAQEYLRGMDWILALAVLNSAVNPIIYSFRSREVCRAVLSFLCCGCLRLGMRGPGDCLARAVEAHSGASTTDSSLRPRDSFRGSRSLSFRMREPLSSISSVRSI
PROCEDURE DETAILS: PathHunter beta-arrestin recruitment
VALUE KIND: pEC50
Give bare numbers, as −log10 of the molar value.

[
  {
    "COMPOUND": "O=C(O)C[C@H]1CCc2c1[nH]c1ccc(OCc3ccc(C4CCCC4)c(C(F)(F)F)c3)cc21 [Etrasimod]",
    "MEASURED ON": "hS1P4 (ProLink-tagged, PathHunter) (Homo sapiens, UniProt O95977)",
    "TEST RESULT": 6.85
  }
]

// next entry
Lookup: Missing value: pEC50, hS1P4 (ProLink-tagged, PathHunter) (Homo sapiens, UniProt O95977), entry CCCCCCCCc1ccc(CCC(N)(CO)COP(=O)(O)O)cc1 (centres unmarked) [Fingolimod(P)] . Fill in?
Found: 8.16
